# Lookup of reported remaining activity at 10 µM keyed by entry
- Test Target: CCR2 (Homo sapiens, UniProt P41597)
- Construct: Membranes were prepared from THP-1 cells; endogenous in cells; host or cells: THP-1 cells (membrane preparation)
- Test Name: CCR2 receptor membrane binding assay ([125I]MCP-1, THP-1 cell membranes, SPA beads)
- Setup Conditions: @ 10 μM test compound; THP-1 membranes; read-out: CCR2 % ctrl @ 10 μM
Report as: number unit

// below: answered molecules
Query string: Value lookup for remaining activity at 10 µM; key = CNC(=O)C[C@@H]1CCCN1C1CCN(C(=O)c2ncnc(NCc3ccc(C(C)(C)C)cc3)c2C)CC1
Result string: 42%

Query string: What do we get for COC1CCN(C2CCN(C(=O)c3ncnc(NCc4ccc(C(C)C)cc4)c3C)CC2)CC1 ?
Result string: 8%

More entries:
Query string: Quick one: remaining activity at 10 µM for Cc1c(NCC2CCCc3ccccc32)ncnc1C(=O)N1CCC(N2CCC(N(C)S(C)(=O)=O)CC2)CC1 (centres unmarked) ?
Result string: 4%

Query string: Cc1c(NCc2ccc(Cl)c(Cl)c2)ncnc1C(=O)N1CCC(N2CCC(NS(=O)(=O)C(C)C)CC2)CC1 ?
Result string: 4%

Query string: Quick one: Cc1c(NCc2ccc(C(C)(C)C)cc2)ncnc1C(=O)N1CCC(N2CCOCC2)CC1
Result string: 12%

Query string: Also need COC1COCCC1NC1CCN(C(=O)c2ncnc(NCC3CCC[C@@H](c4ccccc4)C3)c2C)CC1 (some centres unmarked) [Example 228b] , thanks.
Result string: 4%

Query string: Next record, please: CC(=O)N(C)C1CCN(C2CCN(C(=O)c3ncnc(NCc4ccc(Cl)c(Cl)c4)c3C)CC2)CC1
Result string: 25%

====

- Test Target: CCR2 (Homo sapiens)
- Construct: Membranes were prepared from THP-1 cells; endogenous in cells
- Test Name: CCR2 receptor membrane binding assay ([125I]MCP-1, THP-1 cell membranes, SPA beads)
- Setup Conditions: dissociation constant hKi; [125I]MCP-1 binding to THP-1 membranes
- Description: The above exemplary substances have been tested for binding to CCR2 using a binding assay as outlined herein below: THP-1 cells (human acute monocytic leukaemia cells) were cultured under standardized conditions at 37° C. and 5% CO2 in a humidified incubator. […] Perkin Elmer NEX 332 Jod 125 MCP-1, Stock: 2200 Ci/mmol solved in 2000 μl assay buffer, stored at −20° C. […] Bound radioactivity was determined by scintillation counter after 8 h. […]
Property Measured: Ki (nM)
Note: unit nM is implicit; provide only the numeric part.

Query string: Give the measured Ki of Cc1c(NCC2CCc3ccccc32)ncnc1C(=O)N1CCC(N2CCC(N(C)S(C)(=O)=O)CC2)CC1 (stereo not drawn) [Example 159x] .
Result string: 147

New cases:
Query string: Need Ki of Cc1c(NCCc2ccc(Cl)c(Cl)c2)ncnc1C(=O)N1CCC(N2CCC[C@H](C(=O)N(C)C)C2)CC1 , thanks.
Result string: 1250

Query string: Another: Cc1c(NC[C@H]2CCN(c3ccccc3)C2)ncnc1C(=O)N1CCC(N2CCC(N(C)S(C)(=O)=O)CC2)CC1
Result string: 18

====

- Test Target: CCR2 (Homo sapiens, UniProt P41597)
- Construct: Membranes were prepared from THP-1 cells; endogenous in cells
- Test Name: CCR2 receptor membrane binding assay ([125I]MCP-1, THP-1 cell membranes, SPA beads)
- Setup Conditions: dissociation constant hKi; [125I]MCP-1 binding to THP-1 membranes
Each entry below carries its reported pKi.
On this scale, pKi is minus log10 of a concentration expressed in M (mol/L).

Some solved entries appear below for comparison.
Query string: Enter reported pKi observed with CCR2 (Homo sapiens, UniProt P41597) for Cc1c(NCc2ccc(C(C)(C)C)cc2)ncnc1C(=O)N1CCC(N2CCC(Cc3ccc(F)c(F)c3)CC2)CC1 [Example 228gl]
Result string: 6.27

Query string: Another: CCOC1CCN(C2CCN(C(=O)c3ncnc(NCc4ccc(C(C)(C)C)cc4)c3C)CC2)CC1
Result string: 7.24

Continuing:
Query string: // fetch CCR2 (Homo sapiens, UniProt P41597) pKi for Cc1ccc(CCNc2ncnc(C(=O)N3CCC(N4CCCCC4)CC3)c2C)cc1C
Result string: 6.37

Query string: Now this one: Cc1c(NCc2ccc(Cl)c(C(F)(F)F)c2)ncnc1C(=O)N1CCC(N2CCCCC2)CC1
Result string: 6.28

Query string: Next up: Cc1c(NCCc2ccc(Cl)c(Cl)c2)ncnc1C(=O)N1CCC(C(N)=O)(N2CCCCC2)CC1
Result string: 7.42

Query string: Now consider Cc1c(NCC2CCCC(c3ccccn3)C2)ncnc1C(=O)N1CCC(N2CCC(N(C)S(C)(=O)=O)CC2)CC1 (stereo not shown) [Example 159n] .
Result string: 6.63

Query string: Then this compound: Cc1nc(NC[C@@H]2CC[C@H](c3ccc(C(F)(F)F)cc3)O2)c(C)c(C(=O)N2CCC(N3CCC(N(C)S(C)(=O)=O)CC3)CC2)n1 [Example 159ka]
Result string: 7.72

====

Overview of recorded Ki for various compounds
- Test Target: CCR2 (Homo sapiens, UniProt P41597)
- Construct: Membranes were prepared from THP-1 cells; endogenous in cells
- Test Name: CCR2 receptor membrane binding assay ([125I]MCP-1, THP-1 cell membranes, SPA beads)
- Setup Conditions: dissociation constant hKi; [125I]MCP-1 binding to THP-1 membranes
Number in nM, nothing else.

// known answers, use as guide
Query string: Can you share its Ki? I mean this compound: Cc1c(NCc2ccc(C(C)(C)C)cc2)ncnc1C(=O)N1CCC(N2CCC[C@@H]2CC(=O)N(C)C)CC1
Result string: 4280

Query string: Also Cc1c(NCc2ccc(Cl)c(Cl)c2)ncnc1C(=O)N1CCC(N2CCOCC2)CC1 ?
Result string: 232

Query string: Continue with Cc1c(NC[C@H]2C[C@H](c3ccccc3)C2)ncnc1C(=O)N1CCC(N2CCC(N(C)S(C)(=O)=O)CC2)CC1 [Example 159ub]
Result string: 18

The record that follows has no Ki shown yet.
Query string: I am curious: what Ki value has been reported for Cc1c(NCc2ccc(C(C)(C)C)cc2)ncnc1C(=O)N1CCC(NC2CCOCC2F)CC1 (stereo not shown) [Example 228d] ?
Result string: 91

====

- Test Target: CCR2 (Homo sapiens)
- Construct: Membranes were prepared from THP-1 cells; endogenous in cells
- Sequence (P41597 1-360 isoform P41597-2): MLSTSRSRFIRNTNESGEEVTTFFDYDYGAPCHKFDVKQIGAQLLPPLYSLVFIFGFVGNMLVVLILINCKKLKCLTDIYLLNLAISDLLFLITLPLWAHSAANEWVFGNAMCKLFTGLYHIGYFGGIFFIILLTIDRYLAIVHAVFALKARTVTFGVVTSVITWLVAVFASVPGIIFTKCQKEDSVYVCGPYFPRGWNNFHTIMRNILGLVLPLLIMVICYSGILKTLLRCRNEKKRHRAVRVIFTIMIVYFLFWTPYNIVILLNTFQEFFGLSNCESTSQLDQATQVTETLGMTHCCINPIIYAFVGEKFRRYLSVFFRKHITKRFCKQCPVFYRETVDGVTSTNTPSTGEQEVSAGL
- Test Name: CCR2 receptor membrane binding assay ([125I]MCP-1, THP-1 cell membranes, SPA beads)
- Setup Conditions: dissociation constant hKi; [125I]MCP-1 binding to THP-1 membranes
Property Measured: pKi
By convention, pKi is the negative base-10 log of a molar concentration.

Before answering, review these 7 worked examples.
Query string: So what pKi did Cc1c(NCc2ccc(Cl)cc2)ncnc1C(=O)N1CCC(N2CCCCC2)CC1 get with CCR2 (Homo sapiens)?
Result string: 6.18

Query string: Moving on to COC1CCN(C2CCN(C(=O)c3ncnc(NCc4ccc(Cl)c(F)c4)c3C)CC2)CC1
Result string: 6.77

Query string: Same for Cc1c(NCc2ccc(Cl)c(Cl)c2)ncnc1C(=O)N1CCC(N2Cc3ccccc3C2)CC1
Result string: 6.37

Query string: Request: Cc1c(NCc2ccc(Cl)c(Cl)c2)ncnc1C(=O)N1CCC(N2CCC(O)CC2)CC1
Result string: 6.67

Query string: And what about the molecule Cc1c(NCc2ccc(C(C)(C)C)cc2)ncnc1C(=O)N1CCC(N2CCC(Oc3ccccn3)CC2)CC1 ?
Result string: 6.91

Query string: Do the same for Cc1c(NCC2CCC(C(C)(C)C)CC2)ncnc1C(=O)N1CCC(N2CCC(N(C)S(C)(=O)=O)CC2)CC1 (centres unmarked) [Example 159o] please
Result string: 7.92

Query string: Same lookup for Cc1c(NCc2ccc(Cl)c(Cl)c2)ncnc1C(=O)N1CCC(N2CCC3(CCNC3=O)CC2)CC1 , please.
Result string: 6.11

Now look at this entry.
Query string: Request: pKi, test system CCR2 (Homo sapiens), entry Cc1c(NCc2ccc(C(C)(C)C)cc2)ncnc1C(=O)N1CCC(N2CCC(c3ccccc3)C2)CC1 (centres unmarked)
Result string: 7.08
